Hello, the source for this data is paper PMC10280043, in case you need it.

TGT: hCAXII (Homo sapiens)
Sequence (O43570 25-354): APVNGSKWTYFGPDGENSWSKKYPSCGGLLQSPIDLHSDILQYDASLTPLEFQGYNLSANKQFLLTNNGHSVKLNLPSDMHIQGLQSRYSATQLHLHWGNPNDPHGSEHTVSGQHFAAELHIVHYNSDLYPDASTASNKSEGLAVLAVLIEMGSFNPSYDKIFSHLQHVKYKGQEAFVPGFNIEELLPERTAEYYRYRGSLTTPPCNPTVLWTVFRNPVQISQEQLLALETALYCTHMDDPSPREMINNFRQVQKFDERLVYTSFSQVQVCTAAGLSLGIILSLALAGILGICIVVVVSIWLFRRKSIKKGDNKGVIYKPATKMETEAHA
Note to self: use True only for IC50 readings below 400 nM; a reading exactly at 400 nM still gets False.

COc1cccc(C2CC(c3cc(Cl)cc(Cl)c3O)=NN2c2ccc(S(N)(=O)=O)cc2)c1 (stereo not shown)	False
Cc1ccc(C2CC(c3ccc(F)cc3O)=NN2c2ccc(S(N)(=O)=O)cc2)cc1 (stereo not shown)	True
NS(=O)(=O)c1ccc(N2N=C(c3ccccc3O)CC2c2ccc(Cl)cc2)cc1 (stereo not shown)	False
COc1cccc(C2CC(c3cc(Br)ccc3O)=NN2c2ccc(S(N)(=O)=O)cc2)c1 (stereo not shown)	True
NS(=O)(=O)c1ccc(N2N=C(c3cc(Br)ccc3O)CC2c2ccc(Br)cc2)cc1 (stereo not shown)	True
Cc1ccc(C2CC(c3cc(Br)ccc3O)=NN2c2ccc(S(N)(=O)=O)cc2)cc1 (stereo not shown)	False

Next item in the queue.
Q: Here's an entry: COc1ccccc1C1CC(c2ccc(F)cc2O)=NN1c1ccc(S(N)(=O)=O)cc1 (stereo not shown) . Is its IC50 below 400 nM?
Ans: False

###

TGT: hCAII (Homo sapiens)
Note to self: use Met only for IC50 readings below 8 µM; a reading exactly at 8 µM still gets Not met.

NS(=O)(=O)c1ccc(N2N=C(c3cc(Br)ccc3O)CC2c2ccc(Br)cc2)cc1 (centres unmarked)	Not met
Cc1ccc(C2CC(c3ccc(F)cc3O)=NN2c2ccc(S(N)(=O)=O)cc2)cc1 (centres unmarked)	Met
COc1cccc(C2CC(c3cc(Br)ccc3O)=NN2c2ccc(S(N)(=O)=O)cc2)c1 (centres unmarked)	Not met

Next item in the queue.
Q: Here's an entry: NS(=O)(=O)c1ccc(N2N=C(c3ccccc3O)CC2c2ccc(Cl)cc2)cc1 (centres unmarked) . Is its IC50 below 8 µM?
Ans: Met

###

TGT: hCAIX (Homo sapiens, UniProt Q16790)
MEASURED_PARAMETER: log10 of IC50 (log10 of the value in µM)
For clarity, the numbers are log10 values of IC50 expressed in µM.

Use the examples below as a reference point.
COc1cccc(C2CC(c3cc(Cl)cc(Cl)c3O)=NN2c2ccc(S(N)(=O)=O)cc2)c1 (stereo not drawn)	0.65
Cc1ccc(C2CC(c3ccc(F)cc3O)=NN2c2ccc(S(N)(=O)=O)cc2)cc1 (stereo not drawn)	-0.82

Q: log10 of IC50 lookup needed for Cc1ccc(C2CC(c3cc(Br)ccc3O)=NN2c2ccc(S(N)(=O)=O)cc2)cc1 (stereo not drawn) , thanks.
Ans: -0.62

Q: Follow-up item: NS(=O)(=O)c1ccc(N2N=C(c3ccccc3O)CC2c2ccc(Cl)cc2)cc1 (stereo not drawn)
Ans: 0.85

Q: Follow-up item: COc1cccc(C2CC(c3cc(Br)ccc3O)=NN2c2ccc(S(N)(=O)=O)cc2)c1 (stereo not drawn)
Ans: 0.72

Q: Follow-up item: NS(=O)(=O)c1ccc(N2N=C(c3cc(Br)ccc3O)CC2c2ccc(Br)cc2)cc1 (stereo not drawn)
Ans: -0.59
